# protocol details: protein stability index of a GFP-peptide fusion (yeast GPS) (PSI 1-4); higher = more stable; sorted into four equal gates, so the index is relative within each strain
# condition: ubr1∆
Catalogue of protein stability index values
measure: protein stability index

| macromolecule sequence | observed |
| --- | --- |
| ILVFQVSMKANKYQIKK [RPL25] | 3.03 |
| SHINTNVGDNNSTASSS [ARP7] | 2.84 |
| LIPEDKRDQYLKSASKE [RPL28] | 3.36 |
| AALKKTRKAARPQKLRA [RPL6A] | 3.16 |
| PQDILSKLYLLLARVFE [SNF11] | 2.4 |
| ESKSDDNSATSYYELET [RRI1] | 3.19 |
| LKSAIRDEIAKNTELSY [RPN12] | 2.46 |
| IFINYKQTADWLAEKFQ [PRP28] | 2.36 |
